target: alpha-synuclein fibrils, P37840; test: SPR, captured mAb; settings: remark: other sources report otherwise
Quick list: kon per entry.
Could you give me the number in M⁻¹ s⁻¹? Just the number is fine.

Guide cases for kon, answers given:
- ACI-7067-1102G3-Ab1 (antibody, V domains shown) VH: EVKLEESGGGLVQPGGSMKLSCAASGFTFSDAWMNWVRQSPEKGLEWVAEIRNKAHNHATYYAESVKGRFTISGDDSKSSVYLQMNNLRAEDTGIYYCTIYSYWGQGTLVTVSA VL: SIVMTQTPKFLLVSAGDRVTITCKASQSVTKDVAWYQQKPGQSPKLLIYSTSNRYSGVPDRFTGSGYGTDFTFTINTVQTEDLAVYFCQQDYRIPYTFGGGTKLEIK: 46000
- ACI-7079-2606A6-Ab2 (antibody, V domains shown) VH: QVQLQQSGPELVKPGASVKISCKASGFAFSSSWMNWVKQRPGKGLEWVGRIFPGDGDTNYDRKFKDKATLTADKSSSTAYMQLSSLTSEDSAVYFCARWTGGYDWFAYWGQGTLVTVSA VL: DIVLTQSPASLAVSLGQRATISCRASQSVSTSNYNYLHWYQQKPGQPPKLLITYASNLESGVPARFSGSGSGTDFTLNIHPVEEGDTATYYCQHSWEIPLTFGAGTKLELK: 15400

Fill in: kon of ACI-8033-5A12-Ab1 (antibody, V domains shown) VH: QVHLKQSGADLVRPGASVKLSCKASGYTFTDYYINWVKQRPGQGLEWIARIYPGSGNTYYNEKFKGRATLSAEKSSTTAYMQLSSLTSEDSAVYFCVVGYYGAWGQGTTLTVSS VL: DVVMTQTPLSLPVSLGDQASISCRSSQSLVHSNGKTHLHWYLQKPGQSPKLLIYKVSNRFSGVPDRFSGSGSGTDFTLKISRVEAEDLGVYFCSQSTHVPWTFGGGTKLEIK is ___
30600
